- study.system: purified HLA DRB1*0101 (Homo sapiens, UniProt P01903+P01911, A100R/D57E/F55L/F60I/F76Y/I96L/L162R/M171V/P40L/Q125E/R42F/V115G/Y59C)
- Construct: purified from EBV transformed homozygous cell lines or single MHC allele transfected 721.221, C1R, or fibroblast lines; made in house
- protocol.summary: HLA-DR radioligand binding inhibition assay, DRB1*0101
- condition.summary: IC50 nM purified HLA DRB1 *0101, purified HLA DRB1*0101
quantity.measured: IC50 (nM)
All answers are understood in nM, so give the number only.

>>> observed_result("CC[C@H](C)[C@H](NC(=O)[C@H](CCCCN)NC(=O)[C@H](CCCNC(=N)N)NC(=O)[C@H](CCSC)NC(=O)[C@H](CO)NC(=O)[C@@H]1CCCN1C(=O)[C@H](CC(C)C)NC(=O)[C@@H](NC(=O)[C@H](CCC(=O)O)NC(=O)[C@H](CCCCN)NC(=O)[C@H](CCC(N)=O)NC(=O)[C@@H](NC(=O)[C@H](CS)NC(=O)[C@H](CCCCN)NC(=O)[C@@H](N)Cc1ccccc1)C(C)C)C(C)C)C(=O)O [Peptide 9019.0149]")
4100

Now look at this one.
Recorded IC50 for CC[C@H](C)[C@H](NC(=O)[C@H](CCCNC(=N)N)NC(=O)CNC(=O)[C@H](CCCNC(=N)N)NC(=O)[C@@H](NC(=O)[C@@H](NC(=O)[C@H](CCC(N)=O)NC(=O)[C@H](CC(C)C)NC(=O)[C@@H](N)CC(N)=O)C(C)C)[C@@H](C)CC)C(=O)N[C@@H](CC(C)C)C(=O)N[C@@H](Cc1c[nH]cn1)C(=O)N[C@@H](CC(N)=O)C(=O)NCC(=O)N[C@@H](C)C(=O)N[C@@H](Cc1ccc(O)cc1)C(=O)O [Peptide 9019.0053] , please?
1.9

====

- study.system: purified HLA DRB1*0405 (Homo sapiens, UniProt P01903+P01911, A100R/A169T/D86S/F76Y/I96L/K127E/L162R/M171V/N62H/P40V/Q125Y/R42H/S133A/S149N/S66Y/V115G/V209L/W38E)
- Construct: purified from EBV transformed homozygous cell lines or single MHC allele transfected 721.221, C1R, or fibroblast lines; made in house
- protocol.summary: HLA-DR radioligand binding inhibition assay, DRB1*0405
- condition.summary: IC50 nM purified HLA DRB1 *0405, purified HLA DRB1*0405
# IC50 values compiled below
# output: bare number, implied unit nM

Example entries begin here.
>>> observed_result("CC(C)C[C@H](NC(=O)CNC(=O)[C@H](CO)NC(=O)[C@@H](N)CC(N)=O)C(=O)N[C@@H](Cc1ccc(O)cc1)C(=O)N[C@H](C(=O)N[C@@H](CS)C(=O)N[C@@H](CCC(N)=O)C(=O)N[C@@H](C)C(=O)N[C@@H](CC(N)=O)C(=O)N[C@@H](CC(N)=O)C(=O)N[C@@H](CO)C(=O)N[C@@H](C)C(=O)N[C@@H](CO)C(=O)NCC(=O)O)[C@@H](C)O [Peptide 9019.0130]")
96
>>> observed_result("CC(C)C[C@H](NC(=O)[C@H](CC(C)C)NC(=O)[C@H](CCC(N)=O)NC(=O)[C@H](CC(C)C)NC(=O)[C@H](CCCNC(=N)N)NC(=O)[C@H](CO)NC(=O)[C@H](CCCCN)NC(=O)[C@H](CCCCN)NC(=O)[C@@H](NC(=O)[C@@H]1CCCN1C(=O)[C@H](CCC(=O)O)NC(=O)[C@@H](N)CC(C)C)C(C)C)C(=O)NCC(=O)N[C@@H](C)C(=O)N[C@H](C(=O)O)[C@@H](C)O [Peptide 9019.0155]")
13700

Now look at this entry.
Need IC50 of CC[C@H](C)[C@H](N)C(=O)N[C@@H](CO)C(=O)N[C@@H](C)C(=O)N[C@H](C(=O)N[C@H](C(=O)NCC(=O)N[C@H](C(=O)N[C@@H](CC(C)C)C(=O)N[C@@H](CC(C)C)C(=O)N[C@H](C(=O)N[C@H](C(=O)N[C@H](C(=O)N[C@@H](CC(C)C)C(=O)NCC(=O)N[C@H](C(=O)O)C(C)C)C(C)C)C(C)C)C(C)C)[C@@H](C)CC)C(C)C)C(C)C [Peptide 9019.0067] , thanks.
447
